Target: native CB1 receptors (Rattus norvegicus)
Sequence (P20272 whole entry): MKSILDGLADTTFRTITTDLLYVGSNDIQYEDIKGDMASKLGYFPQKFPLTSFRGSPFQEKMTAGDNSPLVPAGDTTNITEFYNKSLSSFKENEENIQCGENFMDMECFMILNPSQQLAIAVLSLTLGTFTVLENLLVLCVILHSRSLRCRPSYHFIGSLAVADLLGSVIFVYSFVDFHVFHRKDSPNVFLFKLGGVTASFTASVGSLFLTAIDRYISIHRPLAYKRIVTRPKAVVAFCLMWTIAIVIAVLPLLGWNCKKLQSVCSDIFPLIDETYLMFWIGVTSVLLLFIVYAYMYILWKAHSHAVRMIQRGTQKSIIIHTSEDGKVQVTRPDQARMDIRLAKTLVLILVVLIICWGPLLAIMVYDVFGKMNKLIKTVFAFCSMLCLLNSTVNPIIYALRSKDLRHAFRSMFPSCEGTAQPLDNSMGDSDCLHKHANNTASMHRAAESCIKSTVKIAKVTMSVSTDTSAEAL
Assay: CB1 receptor rat binding assay ([3H]SR141716A, rat brain membranes)
Conditions: rat brain membranes, [3H]SR141716A; read-out: Binding rat pKi (converted)
MEASUREMENT KIND: Ki (nM)
Answer format: numeric, nM implied, no suffix.

Q: Which Ki value belongs to Cc1csc(CNC(=O)c2ccc3c(c2)N=C(c2cccc(C)n2)c2ccccc2S3)c1 [drawing 1263] ?
A: 1.58

Q: // repeat for O=C(NCCc1cccnc1)c1ccc2c(c1)N=C(c1ccc(Cl)c(Cl)c1)c1ccccc1S2 [drawing 1407] and report
A: 6.31

Q: // repeat for O=C(NCCCc1ccccc1)c1ccc2c(c1)N=C(N1CCCCC1)c1ccccc1S2 [drawing 1533] and report
A: 10

Q: // repeat for CCCCNC(=O)c1ccc2c(c1)N=C(c1ccc(F)cn1)c1ccccc1S2 [drawing 1246] and report
A: 15.8

Q: // repeat for Cc1ccc(CNC(=O)c2ccc3c(c2)N=C(c2ccsc2)c2ccccc2S3)o1 [drawing 1346] and report
A: 3.98

Q: // repeat for CCCCNC(=O)c1ccc2c(c1)N=C(c1ccc(Cl)s1)c1cc(Cl)ccc1S2 [drawing 1426] and report
A: 6.31

Q: // repeat for CCOC(=O)N1CCC(NC(=O)c2ccc3c(c2)N=C(c2ccc(Cl)cc2)c2ccccc2S3)CC1 [drawing 1548] and report
A: 12.6

Q: // repeat for O=C(NCCc1ccccc1)c1ccc2c(c1)N=C(c1ccc(F)cc1)c1ccccc1S2 [drawing 1335] and report
A: 3.98

Q: // repeat for "O=C(NC1CCC(F)(F)CC1)c1ccc2c(c1)N=C(c1ccsc1)c1ccccc1S2" and report
A: 3.16

Q: // repeat for O=C(NCc1ccccc1Br)c1ccc2c(c1)N=C(c1ccccc1F)c1ccccc1S2 [drawing 1355] and report
A: 31.6

Q: // repeat for Cc1ccsc1C1=Nc2cc(C(=O)NCCc3cccnc3)ccc2Sc2ccccc21 [drawing 1521] and report
A: 79.4

Q: // repeat for O=C(NC1CCCC1)c1ccc2c(c1)N=C(c1cccc(F)c1)c1ccccc1S2 [drawing 1310] and report
A: 25.1

Q: // repeat for CC(C)CNC(=O)c1ccc2c(c1)N=C(c1ccc(Br)cc1)c1ccccc1S2 [drawing 1354] and report
A: 3.98

Q: // repeat for O=C(NCc1ccc(F)cc1)c1ccc2c(c1)N=C(c1ccc(Cl)cc1)c1ccccc1[S+]2[O-] (stereo not drawn) [drawing 1301] and report
A: 20
